# Tested on: LOX IMVI melanoma
# procedureSummary: NCI tumour cell line growth inhibition, 48 h; in the data active = GI50 below about 0.43 µM; inactive = the rest
The categories you may choose from are active, inactive

>>> print(df.to_string())
                                   compound  assignedlabel
0  Nc1cc(C(F)F)c(-c2nc(N3[C@@H]4CC[C@H]3COC4)nc(N3[C@@H]4CC[C@H]3COC4)n2)cn1         active
1  O=S(=O)(Nc1ccc(Cl)c(C(F)(F)F)c1)c1ccc(-c2cnc(C3CC3)o2)cc1         active
2  N#CC1=C(N)Oc2c(sc3c(F)cccc23)C1c1ccc([N+](=O)[O-])cc1 (stereo not drawn)         active
3  O=C(N/N=C/c1cc2ccccc2c2ccccc12)c1cc(O)c(O)c(O)c1       inactive
4  O=[N+]([O-])c1ccc(N(CCO)CCO)c2c1no[n+]2[O-]       inactive

Qu. In this assay, the call recorded for O=C=Nc1ccc(Cc2ccc(N=C=O)cc2)cc1 (tested in a mixture with another compound) was what?
Ans. inactive

Qu. In this assay, the call recorded for O=C(Oc1ccc([N+](=O)[O-])cc1)N1CCC(C(O)(c2ccc3c(c2)OCO3)c2ccc3c(c2)OCO3)CC1 was what?
Ans. inactive
